Ref: patent US20210269480A1

# Target Under Test: T1, human Nectin-4 (human), Q96NY8
# T1 chain: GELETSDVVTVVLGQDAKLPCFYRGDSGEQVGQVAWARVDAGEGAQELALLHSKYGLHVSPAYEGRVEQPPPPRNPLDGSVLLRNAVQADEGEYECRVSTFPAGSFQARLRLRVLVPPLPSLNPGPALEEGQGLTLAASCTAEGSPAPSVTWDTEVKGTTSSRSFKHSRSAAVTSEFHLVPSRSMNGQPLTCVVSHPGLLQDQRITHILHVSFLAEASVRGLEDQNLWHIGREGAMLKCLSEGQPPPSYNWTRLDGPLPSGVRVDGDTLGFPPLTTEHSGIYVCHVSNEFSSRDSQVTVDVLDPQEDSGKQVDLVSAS
# Experiment Description: FP competition, tracer SEQ ID NO 217
# Measurement Parameters: remark: other sources report otherwise
*1 amine or outer side, *2 acyl side, *3 side chain or, on linkers, in order; H or OH if unused. Bridges are numbered along the chain shown (N, C = ends). Where no end group is shown, it is not given here. TATA = O=C(CC[*:1])N1CN(C(=O)CC[*:2])CN(C(=O)CC[*:3])C1
Readout Type: Ki (nM)
One number for each entry, in nM.

**Query** Look up and report measured Ki for this entry: ACPFGCMKNWAWPIWCTNK (linker 2-6-16 via TATA) [BCY7424]
**Result** 562
